Data provenance: patent US5250679A

What IC50 was measured for each of the following?
# system under test: GP IIb IIIa (Homo sapiens, UniProt P05106+P08514)
# Construct: from tissue; host or cells: outdated human platelets
# Sequence (P08514 32-887 limits assumed): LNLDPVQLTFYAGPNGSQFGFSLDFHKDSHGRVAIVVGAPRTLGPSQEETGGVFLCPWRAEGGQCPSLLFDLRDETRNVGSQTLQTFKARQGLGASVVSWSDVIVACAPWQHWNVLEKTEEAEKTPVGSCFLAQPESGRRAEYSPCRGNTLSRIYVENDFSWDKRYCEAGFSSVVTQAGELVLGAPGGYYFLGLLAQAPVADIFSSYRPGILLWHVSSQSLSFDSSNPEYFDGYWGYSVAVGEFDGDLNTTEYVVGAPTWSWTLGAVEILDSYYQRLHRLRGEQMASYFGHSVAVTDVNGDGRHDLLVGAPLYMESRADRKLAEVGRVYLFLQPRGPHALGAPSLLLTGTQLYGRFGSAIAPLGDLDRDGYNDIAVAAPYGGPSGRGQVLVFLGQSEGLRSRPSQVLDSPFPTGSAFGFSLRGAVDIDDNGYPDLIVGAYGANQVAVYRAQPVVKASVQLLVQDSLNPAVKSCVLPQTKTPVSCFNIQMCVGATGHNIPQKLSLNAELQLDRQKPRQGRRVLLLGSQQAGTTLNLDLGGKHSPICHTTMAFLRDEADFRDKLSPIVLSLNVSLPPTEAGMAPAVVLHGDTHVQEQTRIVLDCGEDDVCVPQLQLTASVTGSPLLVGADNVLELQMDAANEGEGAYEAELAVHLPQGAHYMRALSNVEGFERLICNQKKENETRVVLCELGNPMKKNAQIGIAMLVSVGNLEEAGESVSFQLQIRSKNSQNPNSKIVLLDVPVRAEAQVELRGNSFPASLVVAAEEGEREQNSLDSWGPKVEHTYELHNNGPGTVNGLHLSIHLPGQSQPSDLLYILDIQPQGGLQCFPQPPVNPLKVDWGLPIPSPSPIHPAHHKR
# Sequence (P08514 891-1039 partner limits assumed): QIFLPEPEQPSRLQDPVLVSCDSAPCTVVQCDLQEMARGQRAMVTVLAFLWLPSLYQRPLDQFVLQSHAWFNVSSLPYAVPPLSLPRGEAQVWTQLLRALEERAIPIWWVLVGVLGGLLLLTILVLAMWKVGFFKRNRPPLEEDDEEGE
# Sequence (P05106 27-788): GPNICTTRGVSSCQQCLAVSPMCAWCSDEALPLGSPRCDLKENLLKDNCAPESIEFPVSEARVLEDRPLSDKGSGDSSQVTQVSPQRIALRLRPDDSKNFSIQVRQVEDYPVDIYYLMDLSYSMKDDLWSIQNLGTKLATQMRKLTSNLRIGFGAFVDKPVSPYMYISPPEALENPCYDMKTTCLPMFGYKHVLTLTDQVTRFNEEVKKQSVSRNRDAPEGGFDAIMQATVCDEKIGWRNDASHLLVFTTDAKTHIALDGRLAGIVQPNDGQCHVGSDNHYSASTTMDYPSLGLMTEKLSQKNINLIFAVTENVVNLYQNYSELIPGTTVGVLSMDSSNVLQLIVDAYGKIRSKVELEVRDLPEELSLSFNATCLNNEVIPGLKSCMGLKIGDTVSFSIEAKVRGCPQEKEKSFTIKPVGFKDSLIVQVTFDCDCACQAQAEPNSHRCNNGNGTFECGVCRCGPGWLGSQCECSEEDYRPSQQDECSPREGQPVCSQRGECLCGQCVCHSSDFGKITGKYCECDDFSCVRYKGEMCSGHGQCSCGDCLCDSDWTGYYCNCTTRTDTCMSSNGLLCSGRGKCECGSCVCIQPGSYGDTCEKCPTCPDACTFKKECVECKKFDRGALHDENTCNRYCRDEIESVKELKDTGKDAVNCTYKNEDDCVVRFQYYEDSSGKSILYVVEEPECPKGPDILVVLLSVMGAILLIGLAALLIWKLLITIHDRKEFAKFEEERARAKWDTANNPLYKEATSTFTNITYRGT
# procedure summary: Fibrinogen-GP IIb IIIa Receptor ELISA Binding Assay (Fg/IIbIIIa)
# condition info: Example 29, Cmpd # 1-105; read-out: IC50 Fg/IIbI
Counter-ions that a name gives are not always drawn.
Numbers only, in nM.

compound	system under test	IC50 / nM
N=C(N)NCCCCCCc1ccc2c(c1)C(=O)N(CCC(=O)O)CC(=O)N2Cc1ccc(Cl)cc1 [Cmpd 65]	GP IIb IIIa (Homo sapiens, UniProt P05106+P08514)	50
NCCCCCc1ccc2c(c1)C(=O)N(CCC(=O)O)CC(=O)N2Cc1ccc(F)cc1F [Cmpd 101]	GP IIb IIIa (Homo sapiens, UniProt P05106+P08514)	200
N=C(N)NCCCCCc1ccc2c(c1)C(=O)N(CCC(=O)O)CC(=O)N2Cc1cccc2ccccc12 [Cmpd 77]	GP IIb IIIa (Homo sapiens, UniProt P05106+P08514)	8
N=C(N)NCCCCCc1ccc2c(c1)C(=O)N(CCC(=O)O)CC(=O)N2C(c1ccccc1)c1ccccc1 [Cmpd 69]	GP IIb IIIa (Homo sapiens, UniProt P05106+P08514)	82
NCCCCCCCc1ccc2c(c1)C(=O)N(CCC(=O)O)CC(=O)N2Cc1ccc(Cl)cc1 [Cmpd 66]	GP IIb IIIa (Homo sapiens, UniProt P05106+P08514)	26
CN1C(=O)CN(C(CC(=O)O)c2ccccc2)C(=O)c2cc(C#CCCCCN)ccc21 (centres unmarked) [Cmpd 53]	GP IIb IIIa (Homo sapiens, UniProt P05106+P08514)	240
N=C(N)NCCCCC#Cc1ccc2c(c1)C(=O)N(CCC(=O)O)CC(=O)N2Cc1ccc(Cl)cc1 [Cmpd 61]	GP IIb IIIa (Homo sapiens, UniProt P05106+P08514)	43
CC1C(=O)N(C)c2ccc(C#CCN)cc2C(=O)N1CCC(=O)O (centres unmarked) [Cmpd 9]	GP IIb IIIa (Homo sapiens, UniProt P05106+P08514)	70000
NCCCCCc1ccc2c(c1)C(=O)N(CCC(=O)O)CC(=O)N2 [Cmpd 29]	GP IIb IIIa (Homo sapiens, UniProt P05106+P08514)	2920
CC(CC(=O)O)N1CC(=O)N(C)c2ccc(C#CCCCNC(=N)N)cc2C1=O (centres unmarked) [Cmpd 38]	GP IIb IIIa (Homo sapiens, UniProt P05106+P08514)	18

For each of the items listed, what is its IC50?
1. N=C(N)NCCCCCc1ccc2c(c1)C(=O)N(CCC(=O)O)CC(=O)N2Cc1ccc(C(F)(F)F)cc1 [Cmpd 93, trifluoroacetate]
2. CN1C(=O)CN(CCC(=O)O)C(=O)c2cc(C#CCCN)ccc21 [Cmpd 21]
3. O=C(O)CCN1CC(=O)N(Cc2ccc(Cl)cc2)c2ccc(-c3ccc(N4CCNCC4)cc3)cc2C1=O [Cmpd 73]

Data returned:
[14, 6000, 7]
